Molecular target: T1, macaca fascicularis (mf) PRLR.mmh (soluble monomeric monkey PRLR) (Macaca fascicularis)
T1 construct: called soluble monomeric PRLR protein
T1 chain: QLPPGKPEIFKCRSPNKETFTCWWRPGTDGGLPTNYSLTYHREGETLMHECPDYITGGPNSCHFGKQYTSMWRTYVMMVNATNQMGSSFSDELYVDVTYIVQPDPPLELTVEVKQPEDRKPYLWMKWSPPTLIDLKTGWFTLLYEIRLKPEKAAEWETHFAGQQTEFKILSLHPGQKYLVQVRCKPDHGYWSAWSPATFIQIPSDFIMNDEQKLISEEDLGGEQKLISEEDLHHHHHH
Experiment: SPR Biacore, 25 C, mAb capture
Quantity measured: koff (s⁻¹)
Your answer is read as s⁻¹, so omit the unit and give the number.

## Task Returns the measured koff for the input binder. Input: H1H6795P (antibody, human IgG1, V domains shown, Human IgG1 Fc (H1H)) VH: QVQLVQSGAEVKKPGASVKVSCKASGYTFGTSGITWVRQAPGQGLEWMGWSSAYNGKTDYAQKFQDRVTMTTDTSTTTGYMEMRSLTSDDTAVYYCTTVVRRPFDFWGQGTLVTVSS VL: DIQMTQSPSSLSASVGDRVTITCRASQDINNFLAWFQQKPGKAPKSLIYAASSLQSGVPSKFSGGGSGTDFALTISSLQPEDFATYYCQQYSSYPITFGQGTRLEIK
## Result 0.00197
